assay: Selectivity index, ratio of CC50 for HPLF to CC50 for human HSC4 cells
MEASUREMENT KIND: Selectivity Index

> print(dat)
                            chemical.smiles  value.operator  reported.value
1                            O=C(O)c1cccnc1               =               1
2  O=C1/C(=C/c2ccc(Cl)cc2)CCC/C1=C\c1ccc(OC(=O)c2cccnc2)cc1               =            4.67
3  COc1ccc(/C=C2\CCC/C(=C\c3ccc(OC(=O)c4cccnc4)cc3)C2=O)cc1               >            8.81
4  O=C1/C(=C/c2ccc(OC(=O)c3cccnc3)cc2)CCC/C1=C\c1ccc([N+](=O)[O-])cc1               =               1
5  O=C1/C(=C/c2ccccc2)CCC/C1=C\c1ccc(OC(=O)c2cccnc2)cc1               =            6.67
6  Cc1ccc(/C=C2\CCC/C(=C\c3ccc(OC(=O)c4cccnc4)cc3)C2=O)cc1               >            1.93
7     N[C@@H](Cc1ccc(N(CCCl)CCCl)cc1)C(=O)O               =            1.46

====

test: Toxicity in ip dosed mouse; type: organism-based; details: in vivo
MEASUREMENT KIND: LD50 (mg/kg)

> print(dat)
                                   compound  measurement.kind  reported.value
1  N[C@@H](Cc1ccc(N(CCCl)CCCl)cc1)C(=O)O [MELPHALAN]              LD50            21.7

====

assay: Cytotoxicity against HPLF after 48 hrs by MTT assay; format: cell-based; settings: human, HPLF cells
Recorded measurements of CC50 at 48 h, one per entry
MEASUREMENT KIND: CC50 at 48 h

> print(dat)
                                   compound  reported.value
1  COc1ccc(/C=C2\CCC/C(=C\c3ccc(OC(=O)c4cccnc4)cc3)C2=O)cc1        > 200 µM
2                   O=C(O)c1cccnc1 [NIACIN]        > 200 µM
3  O=C1/C(=C/c2ccc(OC(=O)c3cccnc3)cc2)CCC/C1=C\c1ccc([N+](=O)[O-])cc1        > 200 µM
